Target: Metabotropic glutamate receptor 8 (Rattus norvegicus) (UniProt P70579)
Sequence (P70579 whole entry, looked up): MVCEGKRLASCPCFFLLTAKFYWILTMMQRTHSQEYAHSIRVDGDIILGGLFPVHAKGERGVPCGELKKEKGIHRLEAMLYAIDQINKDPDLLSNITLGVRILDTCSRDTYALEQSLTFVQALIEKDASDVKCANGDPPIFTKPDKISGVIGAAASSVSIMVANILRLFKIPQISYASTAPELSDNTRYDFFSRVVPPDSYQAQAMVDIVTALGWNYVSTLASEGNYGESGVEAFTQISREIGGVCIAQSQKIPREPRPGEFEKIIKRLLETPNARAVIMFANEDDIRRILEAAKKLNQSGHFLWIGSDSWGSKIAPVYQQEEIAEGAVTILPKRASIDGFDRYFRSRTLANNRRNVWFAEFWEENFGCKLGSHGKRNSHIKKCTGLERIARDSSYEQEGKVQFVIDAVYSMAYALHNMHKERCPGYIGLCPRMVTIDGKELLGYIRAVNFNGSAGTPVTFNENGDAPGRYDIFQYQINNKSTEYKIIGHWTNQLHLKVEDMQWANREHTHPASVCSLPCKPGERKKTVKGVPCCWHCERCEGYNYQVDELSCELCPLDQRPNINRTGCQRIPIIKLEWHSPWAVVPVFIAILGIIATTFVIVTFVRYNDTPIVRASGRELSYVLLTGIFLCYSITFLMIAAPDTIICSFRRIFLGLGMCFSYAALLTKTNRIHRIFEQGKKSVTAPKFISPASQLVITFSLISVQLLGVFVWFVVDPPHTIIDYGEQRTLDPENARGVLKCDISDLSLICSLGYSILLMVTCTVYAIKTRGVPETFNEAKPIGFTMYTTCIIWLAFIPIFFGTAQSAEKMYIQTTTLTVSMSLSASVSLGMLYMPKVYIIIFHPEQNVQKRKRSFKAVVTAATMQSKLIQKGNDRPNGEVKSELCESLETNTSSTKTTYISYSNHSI
Test: mGlu8-mediated intracellular calcium response modulators – cell-based, HEK293 rmGlu8, Gqi9 chimera, Fluo-4 calcium, counter-screen for GIRK activator project, confirmation (AID 623869)
Settings: HEK293 rmGlu8/Gqi9 calcium flux, Fluo-4 fluorescence; glutamate at EC20 added after compound
The whole screen tested about 2,100 compounds, of which about 75 (4%) were called active.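 The calls were made as follows: active = calcium fluorescence trace judged by eye to show a response, as agonist, enhancer of the glutamate response, or inhibitor; inactive = trace judged by eye to show no response.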 This is one part of a sample in which actives are shown more often than they occur.
Outcomes: class 1 = active, class 0 = inactive

COMPOUND: S=C(Nc1ccccc1Cl)Nc1ccc(Cl)cc1Cl
CAT: class 0
//
COMPOUND: Cc1ccccc1NC(=S)NC(=O)CCc1ccccc1
CAT: class 0
//
COMPOUND: Cc1cccc(C)c1NC(=S)NC(=O)CCc1ccccc1
CAT: class 0
//
COMPOUND: COc1ccccc1C(=O)N1c2ccccc2Sc2ccccc21
CAT: class 0
//
COMPOUND: Fc1ccc(/C=N/n2c(-c3cccs3)n[nH]c2=S)cc1
CAT: class 0
//
COMPOUND: Cc1ccccc1C(=O)Nc1ccccc1C(=O)N/N=C\c1ccco1
CAT: class 0
//
COMPOUND: COC(=O)c1ccccc1NC(=S)NC(=O)c1ccccc1
CAT: class 0
//
COMPOUND: CCOC(=O)c1c2n(c3c(NCc4ccccc4)ncnc13)CCCC2
CAT: class 0
//
COMPOUND: CCC(C)n1c(=S)[nH]c2c(sc3ccc([N+](=O)[O-])cc32)c1=O (configuration not stated)
CAT: class 0
//
COMPOUND: COC(=O)c1c(NS(=O)(=O)c2cccs2)sc2c1CCCC2
CAT: class 0
//
COMPOUND: O=C(CCc1ccccc1)NNC(=S)NC(=O)c1ccc(Cl)cc1
CAT: class 1
//
COMPOUND: COc1ccc(C(=O)NC(=S)NNC(=O)CCc2ccccc2)cc1
CAT: class 1

----------
Target: Metabotropic glutamate receptor 8 (Rattus norvegicus)
Test: mGlu8-mediated intracellular calcium response modulators – cell-based, HEK293 rmGlu8, Gqi9 chimera, Fluo-4 calcium, counter-screen for GIRK activator project, confirmation (AID 623869)
Settings: HEK293 rmGlu8/Gqi9 calcium flux, Fluo-4 fluorescence; glutamate at EC20 added after compound
Out of some 2,100 compounds screened, about 75 (4%) were called active.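 The calls were made as follows: active = calcium fluorescence trace judged by eye to show a response, as agonist, enhancer of the glutamate response, or inhibitor; inactive = trace judged by eye to show no response.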 This excerpt belongs to a sample that is enriched for actives.
Classes used: yes (active), no (inactive)

COMPOUND: C/C(=N\NC(=O)c1cccc(F)c1)c1ccc(Br)s1
CAT: yes
//
COMPOUND: CC(C)COn1c(=S)[nH]c2ccccc2c1=O
CAT: no
//
COMPOUND: O=C(NC(=S)N1CCN(c2ccc([N+](=O)[O-])cc2)CC1)c1ccc(F)cc1
CAT: no
//
COMPOUND: COc1ccccc1C(=O)NNC(=S)NC(=O)c1sc2ccccc2c1Cl
CAT: yes
//
COMPOUND: C/C(=N\NC(=O)c1ccc(Cl)cc1)c1ccc(Br)s1
CAT: no
//
COMPOUND: CCCCOC(=S)NC(=O)c1sc2ccccc2c1Cl
CAT: no
//
COMPOUND: O=S(=O)(Nc1ccccc1N1CCCCC1)c1ccc(Cl)s1
CAT: no
//
COMPOUND: COC(=O)c1ccccc1NC(=S)NC(=O)c1ccc(C)cc1
CAT: no
//
COMPOUND: CCCCn1c(=S)[nH]c2c(oc3ccc(Cl)cc32)c1=O
CAT: no
//
COMPOUND: Cc1ccc(C(=O)N/N=C(/CC(=O)c2cccs2)C(F)(F)F)cc1
CAT: yes
//
COMPOUND: S=c1[nH]cnc2scc(-c3ccccc3)c12
CAT: no
//
COMPOUND: COc1ccccc1/C=C/C(=O)NC(=S)N(C)C1CCCCC1
CAT: no
//
COMPOUND: CCOC(=O)c1ccccc1NC(=O)CSc1nnc(Cc2cccn2C)n1-c1ccc(C)cc1
CAT: no
//
COMPOUND: CC(C)(C)C(=O)NC(=S)NNC(=O)c1sc2ccccc2c1Cl
CAT: yes
//
COMPOUND: Cc1ccccc1C(=O)Nc1nc(=S)ss1
CAT: yes
//
COMPOUND: O=C(c1cc(-c2ccccc2)on1)N1CCCC1
CAT: no
//
COMPOUND: CCOC(=S)NC(=O)c1sc2ccccc2c1Cl
CAT: no
//
COMPOUND: CSc1ccccc1NC(=O)Nc1ccc(Cl)cc1
CAT: no
//
COMPOUND: CCOc1ccc(-c2nc(-c3ccncc3)no2)cc1OCC
CAT: no
//
COMPOUND: COc1ccc(N2CCCn3c2nc2c3c(=O)n(Cc3ccccc3F)c(=O)n2C)c(OC)c1
CAT: no
//
COMPOUND: Cc1cc(C)c2[nH]c(=S)cc(C)c2c1
CAT: no
//
COMPOUND: COc1ccccc1C(=O)NC(=S)NNC(=O)c1sc2ccccc2c1Cl
CAT: no
//
COMPOUND: CC(=O)c1c(N2CCCC2)[nH]c(-c2ccccc2)nc1=S
CAT: yes
//
COMPOUND: O=C1OCCC1Sc1nc2cc(Cl)ccc2n1Cc1ccccc1 (stereo not given)
CAT: yes
//
COMPOUND: CCCOC(=S)NC(=O)c1sc2ccccc2c1Cl
CAT: no
